# tested-on: T1, recombinant human CTGF-Fc protein (Creative Biomart) (human)
# T1 construct: Bought; also called human CTGF with a human IgG1 Fc Tag
# assay-notes: SPR (Biacore)
Each entry below carries its reported kon.
Respond numerically; units are M⁻¹ s⁻¹ and should not be typed.

{"binder": "lipocalin mutein of SEQ ID NO: 33 (designed binder, also called hNGAL mutein; not shown: C-terminal His-tag) QDSTSDLIPAPPLSKVPLQQNFQDNQFQGKWYVVGWAGNAKLREDKQPFKMSATIYELKEDKSYDVTEVVFEQKKCHYIIKTFVPGSQPGEFTEGNYKRRPRLWSDLVRVVSTNYNQHAMVFFKKVHQNREFFWITLYGRTKELTSELKENFIRFSKSLGLPENHIVFPVPIDQCIDG", "recorded-value": 172000}
{"binder": "lipocalin mutein of SEQ ID NO: 25 (designed binder, Parent hNGAL mutein; also called hNGAL mutein) QDSTSDLIPAPPLSKVPLQQNFQDNQFHGKWYVVGMAGNFRLREDKDPSKMGATIYELKEDKSYNVTQVQFDDKKCLYVIETFVPGSQPGEFTLGAIKSFPGFTSQLVRVVSTNYNQHAMVFFKKVYQNREVFWITLYGRTKELTSELKENFIRFSKSLGLPENHIVFPVPIDQCIDGSAWSHPQFEK", "recorded-value": 26800}

Next item in the queue.
Ask: Field request: kon | item: lipocalin mutein of SEQ ID NO: 8 (designed binder, also called hNGAL mutein; not shown: C-terminal His-tag) QDSTSDLIPAPPLSKVPLQQNFQDNQFQGKWYVVGLAGNYGLRTDKRPSKMFATIYELKEDKSYDVTSVRFEQERCHYTIRTFVPGSQPGEFTSGNIGNYPGSYSTLVRVVSTNYNQHAMVFFKSVIQNREYFAITLYGRTKELTSELKENFIRFSKSLGLPENHIVFPVPIDQCIDG
Reply: 45400
